system: Venturia inaequalis; assay: Test O: apple scab, preventive spray on apple seedlings; type: in vivo; conditions: 100 ppm (100 g/ha, 1000 L/ha), inoculated the following day, 100 = 100% disease control, 0 = no control relative to controls
Use T when the recorded Test O disease control rating is no lower than 80%; use F when it is lower.

Worked examples, 2 compounds total:
COC[C@H](C)Nc1nccc(-c2ncnc(Nc3cccc(Br)c3)n2)n1 :: T
COC[C@H](C)Nc1nccc(-c2ncnc(Nc3ccc(C)c(F)c3)n2)n1 :: F

[Q] Answer whether Test O disease control rating of COC[C@H](C)Nc1nccc(-c2ncnc(Nc3cccc(Cl)c3)n2)n1 is greater than or equal to 80%.
[A] F

[Q] Please tell me: is the compound COC[C@H](C)Nc1nccc(-c2ncnc(Nc3cccc([N+](=O)[O-])c3)n2)n1 at or over 80% in terms of Test O disease control rating?
[A] T

[Q] Test whether the compound Clc1cc(Cl)c(Nc2cc(-c3ccnc(NC4CCOCC4)n3)ccn2)c(Cl)c1 records Test O disease control rating of 80% or higher.
[A] T

[Q] Hi, just wondering whether COC[C@H](C)Nc1nccc(-c2ncnc(Nc3cccc(C)c3)n2)n1 shows Test O disease control rating of 80% or higher.
[A] F

[Q] Does Test O disease control rating meet or surpass 80% for COC[C@H](C)Nc1nccc(-c2ncnc(Nc3ccc(C)c([N+](=O)[O-])c3)n2)n1 ?
[A] T

[Q] Check if Test O disease control rating >= 80% (inclusive). Item: COC[C@H](C)Nc1nccc(-c2ncnc(Nc3cccc(C#N)c3)n2)n1
[A] T

----------
system: Plasmopara viticola; assay: Test R: grape downy mildew, preventive spray on grape seedlings; type: in vivo; conditions: 100 ppm (100 g/ha, 1000 L/ha), inoculated the following day, 100 = 100% disease control, 0 = no control relative to controls
measuredParameter: Test R disease control rating (%)
Field format: number, assumed %, no unit text.

Per the record, COC[C@H](C)Nc1nccc(-c2ncnc(Nc3cccc(Br)c3)n2)n1 has Test R disease control rating of 27

Summary for this molecule, COC[C@H](C)Nc1nccc(-c2ncnc(Nc3ccc(F)c(Cl)c3)n2)n1 : Test R disease control rating is 30

The reported value for COC[C@H](C)Nc1nccc(-c2ccnc(Nc3cccc(F)c3)c2)n1 in terms of Test R disease control rating is 97

----------
test system: Septoria nodorum; assay: Test C: wheat glume blotch, preventive spray on wheat seedlings; assay type: in vivo; conditions: 200 ppm; 100 = 100% disease control, 0 = no control relative to controls
measuredParameter: Test C disease control rating (%)
Enter your answer as a number in %; do not include the unit.

Field: example entries. Status: answers known.
COCC(C)Nc1nccc(-c2ccnc(Nc3ccc(F)cc3)c2)n1 (centres unmarked) [Compound 50] :: 84
COCC(C)Nc1nccc(-c2ccnc(Nc3cccc(F)c3)c2)n1 (centres unmarked) [Compound 41] :: 99
COC[C@H](C)Nc1nccc(-c2ncnc(Nc3ccc(F)c(Cl)c3)n2)n1 [Compound 23] :: 100
CC(C)(C)Nc1nccc(-c2ncnc(Nc3cccc(F)c3)n2)n1 [Compound 10] :: 100
COCC(C)Nc1nccc(-c2ccnc(Nc3cccc(C#N)c3)c2)n1 (centres unmarked) [Compound 42] :: 94

The compound listed as Clc1cccc(Cl)c1Nc1cc(-c2ccnc(NC3CCOCC3)n2)ccn1 [Compound 81] has a reported Test C disease control rating of 99

Lookup result for COC[C@H](C)Nc1nccc(-c2ncnc(Nc3cccc(Br)c3)n2)n1 [Compound 11] ; measured Test C disease control rating: 100

So for CC(C)(C)Nc1nccc(-c2ncnc(Nc3cc(F)cc(F)c3)n2)n1 [Compound 33] , the logged Test C disease control rating turned out to be 99

Value of Test C disease control rating reported for the compound COCC(C)Nc1nccc(-c2ccnc(Nc3c(F)ccc(F)c3F)c2)n1 (centres unmarked) [Compound 70] is 99

----------
test system: Rhizoctonia oryzae; test: Test J: turf brown patch, preventive spray on creeping bent grass seedlings; type: in vivo; details: 200 ppm; 100 = 100% disease control, 0 = no control relative to controls
Measured Test J disease control rating, listed per entry for reference.
Give the value, in units of %, as a plain number.

Below, 4 compounds whose answers are already recorded.
COCC(C)Nc1nccc(-c2ccnc(Nc3cccc(C)c3)c2)n1 (centres unmarked) :: 0
COCC(C)Nc1nccc(-c2ccnc(Nc3cccc(Cl)c3)c2)n1 (centres unmarked) :: 0
COCC(C)Nc1nccc(-c2ccnc(Nc3cccc(Cl)c3F)c2)n1 (centres unmarked) :: 0
COCC(C)Nc1nccc(-c2ccnc(Nc3ccccc3)c2)n1 (centres unmarked) :: 9

Consider the additional compound presented here.
Summary for this compound, COCC(C)Nc1nccc(-c2ccnc(Nc3cccc([N+](=O)[O-])c3)c2)n1 (centres unmarked) : Test J disease control rating is 0

----------
Consider the following compounds and their measured Test C disease control rating readings.
tested on: Septoria nodorum; assay: Test C: wheat glume blotch, preventive spray on wheat seedlings; assay type: in vivo; details: 200 ppm; 100 = 100% disease control, 0 = no control relative to controls
# unit: % | format: bare number

COC[C@H](C)Nc1nccc(-c2ccnc(Nc3cccc(F)c3)c2)n1 [Compound 56] :: 99

Record summary for COCC(C)Nc1nccc(-c2ccnc(Nc3c(C)cccc3C)c2)n1 (stereo not drawn) [Compound 77] : reported Test C disease control rating = 99

COCC(C)Nc1nccc(-c2ccnc(Nc3cccc(C)c3)c2)n1 (stereo not drawn) [Compound 51] has a reported Test C disease control rating of 98

Field Test C disease control rating (entry Fc1cc(F)cc(Nc2ncnc(-c3ccnc(NC4CCOCC4)n3)n2)c1 [Compound 34] ) reads 100

Entry COC[C@H](C)Nc1nccc(-c2ncnc(Nc3cccc([N+](=O)[O-])c3)n2)n1 [Compound 21] — recorded Test C disease control rating = 97

Record summary for Fc1cccc(Nc2ncnc(-c3ccnc(NC4CCOCC4)n3)n2)c1 [Compound 3] : reported Test C disease control rating = 100

Sure, the documented Test C disease control rating for CCCC(C)Nc1nccc(-c2ccnc(Nc3cccc(F)c3)c2)n1 (stereo not drawn) [Compound 59] is 99

// Fc1cccc(Nc2cc(-c3ccnc(NC4CCCOC4)n3)ccn2)c1 (stereo not drawn) [Compound 75] : Test C disease control rating value = 89

// recorded Test C disease control rating for Clc1cc(Cl)c(Nc2cc(-c3ccnc(NC4CCOCC4)n3)ccn2)c(Cl)c1 [Compound 99] : 100

----------
tested on: Septoria nodorum; experiment: Test C: wheat glume blotch, preventive spray on wheat seedlings; type: in vivo; details: 200 ppm; 100 = 100% disease control, 0 = no control relative to controls
measuredParameter: Test C disease control rating (%)
Kindly answer with a numeric value in %, unit omitted.

Answered examples (5):
COCC(C)Nc1nccc(-c2ccnc(Nc3cccc(C(=O)OC)c3)c2)n1 (stereo not drawn) [Compound 52] :: 90
COc1cccc(C)c1Nc1cc(-c2ccnc(NC3CCOCC3)n2)ccn1 [Compound 88] :: 97
Fc1cccc(Nc2ncnc(-c3ccnc(NC4CC4)n3)n2)c1 [Compound 9] :: 99
CSCCNc1nccc(-c2ccnc(Nc3cccc(F)c3)c2)n1 [Compound 55] :: 78
COC[C@H](C)Nc1nccc(-c2ncnc(Nc3ccc(C)c(C)c3)n2)n1 [Compound 24] :: 100

Lab note: COC[C@H](C)Nc1nccc(-c2ncnc(Nc3ccc(F)c(F)c3)n2)n1 [Compound 29] gave Test C disease control rating of 100

So for CC(=O)OCC(C)Nc1nccc(-c2ncnc(Nc3cccc(F)c3)n2)n1 (stereo not drawn) [Compound 8] , the logged Test C disease control rating turned out to be 95

Test C disease control rating reading for Fc1ccc(F)c(Nc2cc(-c3ccnc(NC4CCOCC4)n3)ccn2)c1F [Compound 73] : 99

Measured Test C disease control rating, COCC(C)Nc1nccc(-c2ccnc(Nc3ccc(F)cc3F)c2)n1 (stereo not drawn) [Compound 47] : 0

----------
tested on: Septoria nodorum; assay: Test C: wheat glume blotch, preventive spray on wheat seedlings; type: in vivo; conditions: 200 ppm; 100 = 100% disease control, 0 = no control relative to controls
measuredParameter: Test C disease control rating (%)
Write the number in % without appending the unit.

COCCNc1nccc(-c2ccnc(Nc3cccc(F)c3)c2)n1 [Compound 58] :: 99
COCC(C)Nc1nccc(-c2ccnc(Nc3ccccc3)c2)n1 (stereo not drawn) [Compound 43] :: 99
COCC(C)Nc1nccc(-c2ccnc(Nc3c(F)cccc3F)c2)n1 (stereo not drawn) [Compound 49] :: 92
COC[C@H](C)Nc1nccc(-c2ncnc(Nc3ccnc(Cl)c3)n2)n1 [Compound 27] :: 99
COC[C@H](C)Nc1nccc(-c2ncnc(Nc3cccc(Cl)c3)n2)n1 [Compound 16] :: 99

The compound listed as COC[C@H](C)Nc1nccc(-c2ncnc(Nc3ccc(Cl)c(Cl)c3)n2)n1 [Compound 14] has a reported Test C disease control rating of 100

Lab book: Test C disease control rating of COCC(C)Nc1nccc(-c2ccnc(Nc3c(C)cccc3OC)c2)n1 (stereo not drawn) [Compound 85] noted as 99

For this compound ( COC[C@@H](C)Nc1nccc(-c2ccnc(Nc3cccc(F)c3)c2)n1 [Compound 68] ), measured Test C disease control rating is 99

Noted for COCC(C)Nc1cc(-c2ccnc(Nc3ccccc3)n2)ncn1 (stereo not drawn) [Compound 108] : its Test C disease control rating reads 0

Each recorded value in this set is attributed to patent US8026359B2.
